Each entry below carries its reported ELISA HSA (RSU).
# assayed.system: human serum albumin (human) (UniProt P02768)
# Sequence (P02768 25-609 limits assumed): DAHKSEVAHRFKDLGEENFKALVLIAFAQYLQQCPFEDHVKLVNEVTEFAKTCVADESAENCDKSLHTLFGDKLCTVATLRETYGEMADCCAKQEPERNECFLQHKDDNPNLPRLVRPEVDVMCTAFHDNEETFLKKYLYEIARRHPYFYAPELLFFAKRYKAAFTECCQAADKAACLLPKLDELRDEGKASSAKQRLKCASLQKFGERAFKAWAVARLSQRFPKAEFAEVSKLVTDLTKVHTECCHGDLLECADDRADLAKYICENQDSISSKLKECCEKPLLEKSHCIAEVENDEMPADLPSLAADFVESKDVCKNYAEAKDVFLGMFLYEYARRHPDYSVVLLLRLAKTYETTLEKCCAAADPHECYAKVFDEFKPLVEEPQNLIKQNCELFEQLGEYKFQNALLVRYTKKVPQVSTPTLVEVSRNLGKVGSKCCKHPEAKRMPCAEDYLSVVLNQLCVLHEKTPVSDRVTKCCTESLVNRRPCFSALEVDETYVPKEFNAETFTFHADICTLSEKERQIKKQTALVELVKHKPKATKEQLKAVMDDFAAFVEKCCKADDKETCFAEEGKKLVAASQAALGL
# method.summary: ELISA, lysate on plate-bound antigen
Entry rule: numbers only, all in RSU.

binder	reported.value
ISOP121BR5P1E9 (designed binder, not shown: small tags and cut ends, FN3 domain; E. coli lysate in the ELISA) LPAPKNLVVSRVTEDSARLSWDSYRDYFDSFLIQYQESEKVGEAIVLTVPGSERSYDLTGLKPGTEYTVSIYGVYSRKHVVFVQSNPLSAIFTT	800

The value of ELISA HSA (RSU) measured for the binder ISOP121BR5P1C3 (designed binder, not shown: small tags and cut ends, FN3 domain; E. coli lysate in the ELISA) LPAPKNLVVSRVTEDSARLSWASARDYFDSFLIQYQESEKVGEAIVLTVPGSERSYDLTGLKPGTEYTVSIYGVLAIAQITHWFSNPLSAIFTT turned out to be 480

# credit: patent US20180162928A1
